B1: tRNA (parent)
chain: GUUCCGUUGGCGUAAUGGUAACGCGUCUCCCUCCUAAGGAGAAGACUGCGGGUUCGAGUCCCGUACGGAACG

variants of: B1; test: yeast fitness, log relative to wild type (ln ratio); higher = fitter; tRNA-Arg(CCU), competitive growth, 37 C, 1 M NaCl
In this section we review reported yeast fitness (ln) values for a set of variants.
API doc: respond with a numeric literal and nothing else, no unit.

Below, 2 variants whose answers are already recorded.
Problem: // query yeast fitness (ln) value for entry AGUCCAUUGGCGUAAUGGUAACGCGUUUCCCUCCUAAGGAGAAGAUUGCGGGUUCGAGUCCCGUACGGAGUG [G1A U2G G6A C27U C46U A70G C71U]
Solution: -0.244

Problem: Next variant: GCUCCGUUGGCGUAAUGGUAACGCGUCUCCCUCCUAAGGAGAAGAUUGCGGGUUCGAGUCCCGUAUGGGUCG [U2C C46U C66U A69G A70U]
Solution: -0.0518

***
Problem: // query yeast fitness (ln) value for entry GUUCCUUUGGCGUAAUGGUAACGCGUUUCCCUCCUAAGGAGAAGAUUGCGGGUUCGAGUCCCGUAAGGGUUG [G6U C27U C46U C66A A69G A70U C71U]
Solution: -0.328
